B1: GLT8D2 (parent)
chain: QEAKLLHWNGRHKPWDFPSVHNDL

# Variants of: B1
# protocolDetails: protein stability index of a GFP-peptide fusion (GPS, HEK-293T) (PSI 1-6); higher = more stable;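 note: lentivirally expressed fusions sorted by FACS into six bins by GFP to DsRed ratio, PSI derived from sequencing read proportions per bin multiplied by bin number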
# testConditions: c terminus: a fixed tail appended
I'd appreciate it if you could supply protein stability index values for the items below.
Give bare numbers.

Provide protein stability index values for the following items, in order.
1. L5I
2. Q1L

1. 2.73
2. 2.1
